- Test system: SK-MEL-28 melanoma
- Assay remarks: NCI-60 one-dose screen, 48 h (100 = growth as untreated, 0 = no growth, -100 = all killed)
- Condition label: 10 µM
The panel holds about 83,000 compounds, 20% with a hit somewhere; the sample as a whole holds those more often.
Metric: growth (%)
# unit: % | format: bare number

Problem: Please report growth for the following compound: `O=C(Nc1cccc(-n2cc(-c3ccncc3)c(-c3cc(O)cc(Cl)c3)n2)c1)c1ccc(N2CCOCC2)c(C(F)(F)F)c1`
Solution: -52.4

Problem: Using the record for CC(=O)C1CCC2C3CC(F)C4=CC(=O)CCC4(C)C3C(O)CC12C (stereo unspecified) , state its measured growth.
Solution: 112

Problem: Give the reported growth for this compound. `C(CCCC1=NCCO1)CCCC1=NCCO1`
Solution: 95.4

Problem: Identify the reported growth for the following entry. `O=[P@@]1(c2ccccc2)O[C@H](COCc2ccccc2)[C@@H](OCc2ccccc2)[C@H](OCc2ccccc2)[C@H]1O`
Solution: 97

Problem: Please report the measured growth for `CCCCCCc1cc(N=Nc2ccc(S(=O)(=O)Nc3cc(C)nc(C)n3)cc2)c(O)cc1O`
Solution: 115

Problem: Assign growth to the following record: `CC/C(=C(/c1ccc(OCCN(C)C)cc1)c1ccc(OC(=O)CCC(=O)c2c(C)[nH]c(/C=C3\N=C(c4ccc[nH]4)C=C3OC)c2C)cc1)c1ccccc1`
Solution: 62.1

Problem: Please supply the value of reported growth for the item `Cc1cc(=O)n2nnc3c4ccccc4ccc3n12`
Solution: 98.2

Problem: Give recorded growth. CCN(CC)CCCC(C)Nc1nc(-c2ccc(OC)cc2)nc2cc(Cl)ccc12 (stereo unspecified)
Solution: -70

Problem: Read off the recorded growth for `COc1ccc(-c2nn(-c3cccc(NC(=O)c4ccc(N5CCOCC5)c(C(F)(F)F)c4)c3)cc2-c2ccncc2)cc1Cl`
Solution: 72.3

Problem: Indicate the recorded growth value for this compound: `CSc1nc(=O)n(Cc2ccc(Cl)cc2)c(=O)[nH]1`
Solution: 107

Problem: Identify growth associated with the compound CC(C)=CCc1cc(O)cc2c1OC(C=C(C)C)C1=C2C(=O)C2=C(C1=O)S(=O)(=O)CCN2 (stereo unspecified)
Solution: 36.8

Problem: Specify reported growth for the compound shown: `COc1ccc(-c2nn(-c3cccc(NC(=O)c4cccc(C(F)(F)F)c4)c3)cc2-c2ccncc2)cc1Cl`
Solution: 40.6

Problem: Return growth for the following compound: `O=[N+]([O-])c1ccc(Oc2cccnc2)c([N+](=O)[O-])c1`
Solution: 97.6

Problem: In one line, give reported growth of the entry `CCN(CC)CCCOCCCNc1cc(OC)cc2cccnc12` .
Solution: 103

Problem: Using the record for `CCCCOc1ccc(NC(=O)Nc2nnc(C)s2)cc1` , state its measured growth.
Solution: 106

Problem: Please give measured growth of the following entry: `COc1ccc2c(c1)O/C(=C\c1ncc([N+](=O)[O-])n1C)C2=O`
Solution: -31.9

Problem: # return recorded growth for entry `COc1ccc(S(=O)(=O)NCCCNc2nccc(-c3c(-c4ccc(F)cc4)nc4sccn34)n2)cc1`
Solution: 73.5

Problem: For the compound CO/N=C(/C(=O)NC1C(=O)N2C(C(=O)O)=C(COC(N)=O)CSC12)c1ccco1 (stereo unspecified) , give its reported growth.
Solution: 114

Problem: State its growth for this compound: `CC(=O)c1nc2ccccc2n1CCNC(N)=O`
Solution: 89.6

Problem: Give the measured growth for `C#Cc1ccc(-n2c(/C=C/c3ccc(O)c(OC)c3)nc3ncccc3c2=O)cc1`
Solution: 97.9

Problem: Give the reported growth for this compound. `Cc1cs/c(=N\NC(=O)c2cc(-c3cc4ccccc4o3)nn2-c2ccccc2)n1-c1ccccc1`
Solution: 102

Problem: Indicate the recorded growth value for this compound: `CNc1ncc(-c2ccc(C(F)(F)F)cc2)c(NC2CCCCCC2)n1`
Solution: 88

Problem: Give growth for `N=C(N)c1ccc(-c2ccc(-c3cccs3)s2)cc1`
Solution: 37.7

Problem: Given `Cc1ccc(S(=O)(=O)OCCN(CCOS(=O)(=O)c2ccc(C)cc2)c2c[nH]c(=O)[nH]c2=O)cc1` , respond with its growth.
Solution: 102

Problem: Query growth for `O=C1NC(=O)c2ncccc21`
Solution: 110

Problem: // fetch growth given entry `CC[C@H]1CCC/C=C/[C@@H]2C[C@H](O)C[C@H]2[C@H](O)/C=C/C(=O)O1`
Solution: -0.327

Problem: Look up and report measured growth for this entry: Nc1c(C(=O)Nc2cccc(Br)c2)sc2nc3c(cc12)C(O)CCC3 (stereo unspecified)
Solution: 63.2

Problem: Provide measured growth value, entry: `Nc1ccccc1NC(=O)CCCCC(=O)Nc1ccc2c(c1)/C(=C/c1ccc[nH]1)C(=O)N2`
Solution: 86.1

Problem: Please look at this compound and report its growth: `O=C(Nc1nc(-c2ccccc2Cl)cs1)c1cc(-c2ccc(Cl)cc2)nc2ccc(Cl)cc12`
Solution: 53.5

Problem: Consider the compound `O=C(Nc1nc2ccc(F)cc2s1)c1cc(-c2ccc(F)cc2)n2nc(-c3ccccc3)cc2n1` and give its recorded growth.
Solution: 58.1

Problem: # return recorded growth for entry OCC1OC(n2cnc3c(N/N=C\c4ccccn4)ncnc32)C(O)C1O (stereo unspecified)
Solution: 38

Problem: Dear colleague, please send me the reported growth for `CCCC#CCN(CC)CC` when you can.
Solution: 108

Problem: Determine its reported growth: O=C1OCC2=C1C(c1cccc(Cl)c1)c1cc3c(cc1N2CCO)OCO3 (stereo unspecified)
Solution: 51.3

Problem: Name the recorded growth of the item `COc1cc(-c2cc(/C=C/C(=O)c3ccc4c(c3)OCO4)[nH]n2)cc(OC)c1OC` in your answer.
Solution: 94.3

Problem: State its growth for this compound: CCCCCCCCCCCCCCCCN(C(C)c1ccccc1)S(=O)(=O)c1ccc(OC)c(N)c1 (stereo unspecified)
Solution: 109

Problem: Please give measured growth of the following entry: COC(=O)C1(C)Cc2cc(OC(C)=O)c(OC(C)=O)cc2N1 (stereo unspecified)
Solution: 100

----------
- Test system: COLO 205 colon
- Assay remarks: NCI-60 one-dose screen, 48 h (100 = growth as untreated, 0 = no growth, -100 = all killed)
- Condition label: 10 µM
This is part of a sample that, as a whole, favours compounds with a hit. Of some 83,000 tested, about 20% had one in any assay.
Criterion: growth meeting or surpassing 70%. Met: rule met. Not met: rule not met.

Problem: Reported growth at or above 70%? `O=C(/C(=C/c1ccccc1)CN1CCCCC1)c1ccccc1`
Solution: rule not met

Problem: Exam item: decide whether the reported growth for `COc1cc(-c2cc(C(=O)N3CCN(C(=O)c4ccccc4NCc4ccco4)CC3)nc3cc(-c4ccccc4)nn23)cc(OC)c1OC` is at least 70%.
Solution: rule not met

Problem: State whether the measured growth reaches 70%, counting equality as reaching it, for `C[N+](C)(C)c1ncnc2nc[nH]c12`
Solution: rule met

Problem: Please indicate if the recorded growth for `COc1cc(C)ccc1C(=O)c1ccc(C)cc1OC` meets or exceeds 70%.
Solution: rule not met

Problem: Please indicate if the recorded growth for `Cc1cc2ccccc2nc1-c1ccccc1F` meets or exceeds 70%.
Solution: rule met

Problem: Check if growth >= 70% (inclusive). Item: `O=C(CCCCC[P+](c1ccccc1)(c1ccccc1)c1ccccc1)NC(COC(=O)C(Cl)Cl)(COC(=O)C(Cl)Cl)COC(=O)C(Cl)Cl`
Solution: rule met

Problem: Please check the record `CN1CCCNc2c(c(=O)c2=O)NCCCN(C)CCCNc2c(c(=O)c2=O)NCCCN(C)CCCNc2c(c(=O)c2=O)NCCCN(C)CCCNc2c(c(=O)c2=O)NCCCN(C)CCCNc2c(c(=O)c2=O)NCCCN(C)CCCNc2c(c(=O)c2=O)NCCCN(C)CCCNc2c(c(=O)c2=O)NCCC1` and state if its growth is at or above 70%.
Solution: rule not met

Problem: Does growth meet or surpass 70% for O=C1ON=[N+](c2ccc(Cc3ccc([N+]4=NOC(=O)C4CN4CCOCC4)cc3)cc2)C1CN1CCOCC1 (configuration not stated) ?
Solution: rule met

Problem: Is growth for O=C(CC(NC(=O)OCc1ccccc1)C(=O)OCc1ccccc1)OCc1ccccc1 (configuration not stated) at or above 70%?
Solution: rule met

Problem: Could you verify whether the entry `NC(=O)SCC(=O)Nc1ccc(S(N)(=O)=O)cc1` shows growth of no less than 70%?
Solution: rule met

Problem: # bool: growth of COc1cccc(C2C3=C(COC3=O)N(CCO)c3cc(OC)ccc32)c1 (configuration not stated) >= 70%
Solution: rule not met

Problem: Hi team, for `c1ccc([C@H]2CN3CCSC3=N2)cc1` , is the recorded growth at or above 70%?
Solution: rule met

Problem: Reported growth reaches at least 70% for `CC12O[C@H](C[C@@H](O)[C@H]1O)n1c3ccccc3c3c4c(c5c6ccccc6n2c5c31)C(=O)N(CCCN)C4=O` ?
Solution: rule not met

Problem: Reported growth at or above 70%? O=C(CC(C(=O)c1ccccc1)N1CCOCC1)c1ccccc1 (configuration not stated)
Solution: rule not met

Problem: Is growth at least 70%? Consider `CCN(CCCCCCCCCCN1CC(=O)N(CCCCCCCCCCN(CC)Cc2ccccc2OC)CC1=O)Cc1ccccc1OC`
Solution: rule not met

Problem: Determine whether measured growth meets or exceeds 70% for `COc1ccc(-c2nn(-c3cccc(NC(=O)c4ccc5c(c4)OCCO5)c3)cc2-c2ccncc2)cc1Cl`
Solution: rule not met

Problem: Determine whether this compound has growth no lower than 70%: `O=C1/C(=C\c2cn(C(=O)c3ccc(Cl)cc3)c3ccccc23)c2ccccc2N1C(=O)c1ccc(Cl)cc1`
Solution: rule met

Problem: Decide: is the reported value of growth for `N=C(N)c1ccc(-c2ccc(-c3cccs3)s2)s1` equal to or greater than 70%?
Solution: rule not met

Problem: Quick check, growth >= 70%? `CN(C)c1ccc(N=C2C=CC(=O)c3ccccc32)cc1`
Solution: rule not met

Problem: In plain terms: is recorded growth at least 70% for `COc1cc(/C=N/NC(=O)c2ccccc2Nc2cccc(C(F)(F)F)c2)cc(OC)c1OC` ?
Solution: rule not met

Problem: Evaluate `Cn1c(N)c(N=Nc2ccc(S(=O)(=O)Nc3nccs3)cc2)c(=O)n(C)c1=O` : growth at minimum 70%?
Solution: rule met

Problem: Check if growth >= 70% (inclusive). Item: `CCCCCCCCN(CCCCCCCC)CCCCCCCCCN1CCCc2cc(OC)ccc21`
Solution: rule met

Problem: Check the entry `CSc1nn(-c2ccccc2)c2ncnc(Oc3ccc(C)cc3)c12` : does growth equal or exceed 70%?
Solution: rule met

Problem: Is it the case that N#CC1=C(Nc2ccccc2Cl)SC(c2ccccc2O)NC1=O (configuration not stated) has growth reaching or exceeding 70%?
Solution: rule met

Problem: Is the recorded value of growth equal to or greater than 70% for this compound? C=C(C(=O)c1ccccc1)C(NC(C)(C)C)c1ccccc1 (configuration not stated)
Solution: rule not met

Problem: # check: growth of `COc1cc(/C=C2\Oc3cc(OCC(=O)c4ccccc4)ccc3C2=O)cc(OC)c1OC` is greater than or equal to 70%
Solution: rule met

Problem: Would you say `O=C(Nc1cccc(-n2cc(-c3ccncc3)c(-c3ccc(O)c(Cl)c3)n2)c1)c1cccc(C(F)(F)F)c1` shows growth at minimum 70%?
Solution: rule met

Problem: Identify whether the reported growth of the following compound is 70% or greater: `O=C(N/N=C\c1cc(Cl)ccc1[N+](=O)[O-])c1ccco1`
Solution: rule met

Problem: I'd appreciate it if you could say whether O=C1OCC2=C1C(c1cccc(Cl)c1)c1cc3c(cc1N2CCO)CCC3 (configuration not stated) has growth at least equal to 70%.
Solution: rule not met

Problem: Please tell me: is the compound `Cc1ccc(-c2nc(/C=C3/C(=O)N(C)c4ccc(F)cc43)c3ccccn23)cc1` at or over 70% in terms of growth?
Solution: rule met

Problem: Hi team, for `CCOC(=O)c1ccc(NC(=O)Nc2ncc(Cl)cc2Cl)cc1` , is the recorded growth at or above 70%?
Solution: rule met
